- System: HeLa
- Test Method Notes: Cytotoxicity against human HeLa cells assessed as cell growth inhibition measured after 24 hrs by Celltiter Glo luminescent assay
- Assay type: cell-based
- Particulars: hela, 24 h
Quantity Name: GI50 (µg/mL)
Provide the reading as a plain figure in µg/mL.

Challenge: Dear colleague, I am looking for the recorded GI50 of the following compound: O=C(O)C1CN(c2nc3ccc(Cl)cc3s2)Cc2[nH]c3ccc(Cl)cc3c21 (racemic)
Response given: 65

Challenge: What would you report for Cl.Nc1cc(C(F)(F)F)c2nc(N3CCc4c([nH]c5ccc(Cl)cc45)C3)sc2c1 ?
Response given: 32

Challenge: And for FC(F)(F)c1ccc2nc(N3CCc4c([nH]c5ccc(Cl)cc45)C3)sc2c1 ?
Response given: 4.6

Challenge: And the next one, NCCNCC1CN(c2nc3ccc(Cl)cc3s2)Cc2[nH]c3ccc(Cl)cc3c21 (racemic) ?
Response given: 2.4

Challenge: Could you do the same for FC(F)(F)c1cc(Br)cc2sc(N3CCc4c([nH]c5ccc(Cl)cc45)C3)nc12 , please?
Response given: 5.9

Challenge: Can you handle Cl.NCCSCC1CN(c2nc3ccc(Cl)cc3s2)Cc2[nH]c3ccc(Cl)cc3c21 (racemic) next?
Response given: 3.8

Challenge: Another compound to look at: Cl.NCC(=O)Nc1cc(Cl)c2nc(N3CCc4c([nH]c5ccc(Cl)cc45)C3)sc2c1
Response given: 14.8

Challenge: How about Clc1ccc2[nH]c3c(c2c1)CCN(c1nc2ccc(Br)cc2s1)C3 ?
Response given: 5.1

Challenge: Continue with Clc1ccc2[nH]c3c(c2c1)CCN(c1nc2c(Cl)c(Cl)c(Cl)cc2s1)C3
Response given: 11.7

====

- Test system: Staphylococcus aureus
- Test Method Notes: Potentiation of cefazolin induced antibacterial activity against methicillin resistant Staphylococcus aureus ATCC BAA-44 assessed as minimum resensitizing concentration after 18 hrs by broth microdilution method
- Format: functional
- Particulars: ATCC BAA-44, 18 h, read-out: MEC
For each of the compounds below, state its minimal effective concentration.
Report only the number, with the unit µg/mL understood.

Challenge: Identify the measured minimal effective concentration of Clc1ccc2[nH]c3c(c2c1)CCN(c1nc2c(Cl)cc(Br)cc2s1)C3 for Staphylococcus aureus.
Response given: 8

Challenge: What would you report for Clc1ccc2[nH]c3c(c2c1)CCN(c1nc2c(Cl)cccc2s1)C3 ?
Response given: 2

Challenge: Try Clc1ccc2nc(N3CCc4c([nH]c5ccc(Cl)cc45)C3)sc2c1 next.
Response given: 2

Challenge: Check Clc1ccc2[nH]c3c(c2c1)CCN(c1nc2ccc(Br)cc2s1)C3 too.
Response given: 2

====

- Test system: Staphylococcus aureus
- Test Method Notes: Potentiation of cefazolin induced antibacterial activity against methicillin resistant Staphylococcus aureus ATCC BAA-44 assessed as minimum resensitizing concentration after 18 hrs by broth microdilution method
- Type: functional
- Particulars: ATCC BAA-44, 18 h, read-out: MEC
Consider the following compounds; for each one, report its log10 minimal effective concentration.
Values are log10 of minimal effective concentration in µg/mL.

Challenge: Return reported log10 minimal effective concentration; argument: S=C(Nc1ccc(Cl)cc1)N1CCc2c([nH]c3ccc(Cl)cc23)C1
Response given: 0.30

Challenge: Now the compound Clc1ccc2nc(N3CCc4c([nH]c5ccc(Br)cc45)C3)sc2c1
Response given: 0.00

Challenge: And the next one, FC(F)(F)c1cccc2sc(N3CCc4c([nH]c5ccc(Cl)cc45)C3)nc12 ?
Response given: 0.00

Challenge: COCOCC1CN(c2nc3ccc(Cl)cc3s2)Cc2[nH]c3ccc(Cl)cc3c21 (racemic) ?
Response given: 0.30

Challenge: Another: C[N+](C)(C)CC1CN(c2nc3ccc(Cl)cc3s2)Cc2[nH]c3ccc(Cl)cc3c21.[I-] (racemic)
Response given: 0.60

Challenge: Moving on to NCCOc1cc(Cl)c2nc(N3CCc4c([nH]c5ccc(Cl)cc45)C3)sc2c1
Response given: 0.60

Challenge: Same read-out for Cl.NCCNc1cc(C(F)(F)F)c2nc(N3CCc4c([nH]c5ccc(Cl)cc45)C3)sc2c1 ?
Response given: 0.00

Challenge: Now consider FC(F)(F)Oc1ccc2nc(N3CCc4c([nH]c5ccc(Cl)cc45)C3)sc2c1 and answer again.
Response given: 0.00

Challenge: Queued: Clc1ccc2nc(N3CCc4c([nH]c5c(Cl)cccc45)C3)sc2c1
Response given: 1.20

Challenge: How about this compound: OCC1CN(c2nc3ccc(Cl)cc3s2)Cc2[nH]c3ccc(Cl)cc3c21 (racemic)
Response given: 0.30

Challenge: // query: Clc1ccc2[nH]c3c(c2c1)CCN(c1nc2c(Cl)c(Cl)c(Cl)cc2s1)C3
Response given: 0.00

Challenge: What do you get for FC(F)(F)c1ccc2nc(N3CCc4c([nH]c5ccc(Cl)cc45)C3)sc2c1 ?
Response given: -0.30

Challenge: # iterate: FC(F)(F)Oc1ccc(NC(=S)N2CCc3c([nH]c4ccc(Cl)cc34)C2)cc1
Response given: 0.00

Challenge: What about Cl.NCC(=O)Nc1cc(Cl)c2nc(N3CCc4c([nH]c5ccc(Cl)cc45)C3)sc2c1 ?
Response given: 0.30
